# experiment description: growth suppression of PTEN-deleted HCT116, pilot screen, cell-based, HCT116 clonal line, CellTiter-Glo (AID 824);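 note: 0% = 20 µM Hyamine control and 100% = vehicle cell control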
# stated conditions: 60 h, at 10 µM, stronger effect = lower value
Results filed as inconclusive are left out.
For each record, check the reported viability: if it is below 80% write fulfilled, else write not fulfilled.

INSERT INTO results (compound, label_class) VALUES
  ('O=C(NCc1cccnc1)NC1(C(F)(F)F)Oc2ccccc2O1', 'fulfilled'),
  ('Cc1cc(NC(=O)COC(=O)C2CCN(S(=O)(=O)c3ccc(Cl)cc3)CC2)no1', 'not fulfilled'),
  ('O=C1CC(c2nc3ccccc3[nH]2)CN1c1ccccc1F (stereo unspecified)', 'not fulfilled'),
  ('O=C(C1CCCN(S(=O)(=O)c2ccc(F)cc2)C1)N(Cc1cccs1)C1CC1 (stereo unspecified)', 'fulfilled'),
  ('COc1ccccc1-c1cc(N)n(S(=O)(=O)c2ccc(F)c(C)c2)n1', 'fulfilled'),
  ('Cc1csc2nc(CNS(=O)(=O)c3ccc4c(c3)OCCO4)cn12', 'not fulfilled'),
  ('Cc1csc(NC(=O)CSc2nnc(Cn3c(=O)sc4ccccc43)n2-c2ccccc2)n1', 'not fulfilled'),
  ('O=C1c2ccccc2C(Nc2ccc3c(c2)OCCO3)N1c1ccccn1 (stereo unspecified)', 'not fulfilled'),
  ('COc1ccc(NC(=O)c2oc3ccccc3c2C)c(OC)c1', 'not fulfilled');

* * *

# experiment description: OD615 S. cerevisiae growth inhibition, permissive medium, pilot counter-assay, permissive growth control for S. cerevisiae lifespan shortening project (AID 705)
# stated conditions: OD615, 24 h, at 10 µM, stronger effect = higher value
measured metric: growth inhibition (%)

INSERT INTO measurements (compound, unit_annotation, test_result) VALUES
  ('Cc1cc(C)c(C#N)c(=N)o1', '%', 23.3),
  ('CSC(=NCCCN1CCOCC1)NS(=O)(=O)c1cccs1', '%', -13.8),
  ('N#CC1=C2SCN(Cc3ccccc3)CN2C(=O)CC1c1ccccc1F (configuration not stated)', '%', -3.35),
  ('C=CCSc1nnc2c(n1)OC(c1cccnc1)Nc1ccccc1-2 (configuration not stated)', '%', 8.11),
  ('CSc1nc2c(c(=O)n1-c1ccccc1)SCC2', '%', -15.9),
  ('c1ccc(COc2ccc(Nc3ncnc4nc[nH]c34)cc2)cc1', '%', -2.53),
  ('O=C(O)CSc1cccc2cccc(C(=O)O)c12', '%', -0.49);

* * *

# experiment description: reversal of MRP1-mediated doxorubicin resistance, pilot screen, H69AR cells, doxorubicin co-treatment (AID 601)
# stated conditions: H69AR cells, CellTiter-Glo, 72 h; compound alone cytotoxicity; at 10 µM
For each record, check the reported viability: if it is below 90% write Y, else write N.

INSERT INTO assay_data (molecule, label_class) VALUES
  ('CCn1c(=O)c(C(=O)NCCc2ccccc2)c(O)c2ccccc21', 'Y'),
  ('O=c1c2c3c(sc2n2cnnc2n1CCc1ccccc1)CCCC3', 'Y'),
  ('Cc1cc(=O)oc2cc(OCC(=O)OCc3nnc(-c4ccccc4)o3)ccc12', 'N'),
  ('O=C(Nc1ccccc1)N1C(=O)C2(OCCO2)c2ccccc21', 'Y'),
  ('c1ccc(CCn2nnnc2C(c2cccs2)N2CCOCC2)cc1 (stereo not drawn)', 'N'),
  ('CC(=O)Nn1c(C)nnc1-n1nc(C)cc1C', 'N'),
  ('O=C(O)Cc1cc(I)c(Oc2ccc(O)c(I)c2)c(I)c1', 'N'),
  ('CCOC(=O)CSc1nc2sc(C)c(C)c2c(=O)n1C', 'N'),
  ('CCOc1c(C)cc2[nH]c(CCC(=O)O)nc2c1C', 'N'),
  ('Cc1ccc(-c2noc(CCC(=O)N3CCN(c4cccc(C(F)(F)F)c4)CC3)n2)cc1', 'N'),
  ('CCOC(=O)N1CCN(C(=O)C2CC(=O)N(Cc3ccc(OC)cc3)C2)CC1 (stereo not drawn)', 'N'),
  ('CC(C)[C@H](NC(=O)OC(C)(C)C)c1nnc(SCC(=O)Nc2ccc(Br)cc2)o1', 'N'),
  ('CCOC(=O)c1ccc(S(=O)(=O)NC2CCCCCCC2)n1C', 'N'),
  ('Cc1ccc(-c2nc3ccccc3[nH]2)s1', 'Y'),
  ('CC(=O)NCCn1c(SCC(=O)NCC2CCCO2)nc2ccccc2c1=O (stereo not drawn)', 'N'),
  ('CN(C)S(=O)(=O)c1ccc(/C(O)=C2/C(=O)C(=O)N(CCN3CCCCC3)C2c2cccnc2)cc1 (stereo not drawn)', 'Y'),
  ('Cc1cc(C(=O)NCc2cccnc2)n(-c2ccccc2)n1', 'N');
